These entries and their values trace back to patent US20150337013A1.

Test system: Staphylococcus aureus SAU.399 (ATCC 43300), Methicillin and Oxacillin Resistant
Format: cell-based
Conditions: MHBc with 50 mg/L calcium, 18-20 hours at 37° C.
Quantity Kind: Sa399 MIC (µg/mL)
Report as a plain number; the unit µg/mL is understood.

# count of solved cases: 2
CCCCCCCCOc1ccc(C(=O)N[C@@H](Cc2c[nH]c3ccccc23)C(=O)N[C@H](CC(N)=O)C(=O)N[C@@H](CC(=O)O)C(=O)N[C@@H]2C(=O)NCC(=O)N[C@@H](CCCN)C(=O)N[C@@H](CC(=O)O)C(=O)N[C@H](C)C(=O)N[C@@H](CC(=O)O)C(=O)NCC(=O)N[C@H](CO)C(=O)N[C@@H]([C@H](C)CC(=O)O)C(=O)N[C@@H](CC(=O)c3ccccc3N)C(=O)O[C@@H]2C)cc1 [Compound 36] | 0.25
C[C@H](CC(=O)O)[C@@H]1NC(=O)[C@@H](CO)NC(=O)CNC(=O)[C@H](CC(=O)O)NC(=O)[C@@H](C)NC(=O)[C@H](CC(=O)O)NC(=O)[C@H](CCCN)NC(=O)CNC(=O)[C@@H](NC(=O)[C@H](CC(=O)O)NC(=O)[C@@H](CC(N)=O)NC(=O)[C@H](Cc2c[nH]c3ccccc23)NC(=O)Cc2ccc(-c3ccccc3)cc2)[C@@H](C)OC(=O)[C@H](CC(=O)c2ccccc2N)NC1=O [Compound 66] | 8

compound CCCCCCOc1ccc(C(=O)N[C@@H](Cc2c[nH]c3ccccc23)C(=O)N[C@H](CC(N)=O)C(=O)N[C@@H](CC(=O)O)C(=O)N[C@@H]2C(=O)NCC(=O)N[C@@H](CCCN)C(=O)N[C@@H](CC(=O)O)C(=O)N[C@H](C)C(=O)N[C@@H](CC(=O)O)C(=O)NCC(=O)N[C@H](CO)C(=O)N[C@@H]([C@H](C)CC(=O)O)C(=O)N[C@@H](CC(=O)c3ccccc3N)C(=O)O[C@@H]2C)cc1 [Compound 35] , Sa399 MIC observed: 0.5

compound CCCCCCCCCCCCOc1ccc(C(=O)N[C@@H](Cc2c[nH]c3ccccc23)C(=O)N[C@H](CC(N)=O)C(=O)N[C@@H](CC(=O)O)C(=O)N[C@@H]2C(=O)NCC(=O)N[C@@H](CCCN)C(=O)N[C@@H](CC(=O)O)C(=O)N[C@H](C)C(=O)N[C@@H](CC(=O)O)C(=O)NCC(=O)N[C@H](CO)C(=O)N[C@@H]([C@H](C)CC(=O)O)C(=O)N[C@@H](CC(=O)c3ccccc3N)C(=O)O[C@@H]2C)cc1 [Compound 39] , Sa399 MIC observed: 0.500

----------
Here the recorded Efm384 MIC is given for each entry.
Test system: Enterococcus faecium EFM.384, Daptomycin resistant mutant (14-A)
Type: cell-based
Settings: MHBc with 50 mg/L calcium, 18-20 hours at 37° C.
I'd appreciate it if you included the unit after the number.

CCCCCCOc1ccc(-c2ccc(C(=O)N[C@@H](Cc3c[nH]c4ccccc34)C(=O)N[C@H](CC(N)=O)C(=O)N[C@@H](CC(=O)O)C(=O)N[C@@H]3C(=O)NCC(=O)N[C@@H](CCCN)C(=O)N[C@@H](CC(=O)O)C(=O)N[C@H](C)C(=O)N[C@@H](CC(=O)O)C(=O)NCC(=O)N[C@H](CO)C(=O)N[C@@H]([C@H](C)CC(=O)O)C(=O)N[C@@H](CC(=O)c4ccccc4N)C(=O)O[C@@H]3C)cc2)cc1 [Compound 62] | 1 µg/mL

molecule CCCCc1ccc(/C(C)=C/C(=O)N[C@@H](Cc2c[nH]c3ccccc23)C(=O)N[C@H](CC(N)=O)C(=O)N[C@@H](CC(=O)O)C(=O)N[C@@H]2C(=O)NCC(=O)N[C@@H](CCCN)C(=O)N[C@@H](CC(=O)O)C(=O)N[C@H](C)C(=O)N[C@@H](CC(=O)O)C(=O)NCC(=O)N[C@H](CO)C(=O)N[C@@H]([C@H](C)CC(=O)O)C(=O)N[C@@H](CC(=O)c3ccccc3N)C(=O)O[C@@H]2C)cc1 [Compound 48] , Efm384 MIC observed: 32 µg/mL
